tested on: EGFR (human), P00533 [746-750 del]; assay: KINOMEscan competition binding; conditions: compound 10.0 µM
Sequence (P00533 whole entry, looked up, stated change not applied): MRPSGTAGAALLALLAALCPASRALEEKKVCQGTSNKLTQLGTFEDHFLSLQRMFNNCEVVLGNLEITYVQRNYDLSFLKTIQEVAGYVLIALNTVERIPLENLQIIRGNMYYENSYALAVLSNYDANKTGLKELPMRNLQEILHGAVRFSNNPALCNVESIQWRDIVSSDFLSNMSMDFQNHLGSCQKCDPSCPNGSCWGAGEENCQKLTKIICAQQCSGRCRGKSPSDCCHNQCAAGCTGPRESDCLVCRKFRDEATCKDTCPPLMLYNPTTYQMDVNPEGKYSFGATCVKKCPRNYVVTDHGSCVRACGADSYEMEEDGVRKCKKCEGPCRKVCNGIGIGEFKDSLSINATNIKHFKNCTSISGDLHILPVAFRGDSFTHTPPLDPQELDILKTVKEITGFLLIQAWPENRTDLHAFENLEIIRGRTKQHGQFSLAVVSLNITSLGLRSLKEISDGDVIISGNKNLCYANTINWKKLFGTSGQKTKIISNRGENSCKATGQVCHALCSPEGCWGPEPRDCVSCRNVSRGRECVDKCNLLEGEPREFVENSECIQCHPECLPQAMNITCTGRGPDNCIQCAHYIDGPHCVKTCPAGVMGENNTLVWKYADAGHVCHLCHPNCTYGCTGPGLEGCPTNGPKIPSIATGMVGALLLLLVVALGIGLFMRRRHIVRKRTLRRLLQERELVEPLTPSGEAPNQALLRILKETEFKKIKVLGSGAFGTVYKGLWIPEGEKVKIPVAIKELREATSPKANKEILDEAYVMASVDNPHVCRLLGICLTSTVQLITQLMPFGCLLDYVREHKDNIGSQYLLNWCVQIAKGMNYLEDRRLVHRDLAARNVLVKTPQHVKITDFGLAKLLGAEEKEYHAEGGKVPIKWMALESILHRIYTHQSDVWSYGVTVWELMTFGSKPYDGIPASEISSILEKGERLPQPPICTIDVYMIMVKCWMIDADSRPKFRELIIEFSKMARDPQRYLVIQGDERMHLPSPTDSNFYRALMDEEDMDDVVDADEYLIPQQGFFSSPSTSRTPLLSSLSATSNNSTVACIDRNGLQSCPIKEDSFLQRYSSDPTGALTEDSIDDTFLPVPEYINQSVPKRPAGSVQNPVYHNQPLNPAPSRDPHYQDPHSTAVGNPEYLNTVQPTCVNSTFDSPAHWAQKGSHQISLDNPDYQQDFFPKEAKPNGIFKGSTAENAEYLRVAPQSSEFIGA
One threshold, 70%, splits the recorded kinase still bound, per cent of control values: lower ones are 1, equal or higher ones are -1.

// known answers, use as guide
{"molecule": "Cc1cn(-c2cc(C(=O)Nc3ccc(C)c(NC(=O)c4ccno4)c3)cc(C(F)(F)F)c2)cn1", "classification": -1}
{"molecule": "CCN1CCN(Cc2ccc(Nc3ncc4c(n3)N(C)c3ccccc3C(=O)N4C)cc2C(F)(F)F)CC1", "classification": -1}
{"molecule": "O=C(O)c1ccc(Nc2ncc3c(n2)-c2ccc(Cl)cc2C(c2c(F)cccc2F)=NC3)cc1", "classification": 1}
{"molecule": "COc1ccc(N(C(=O)Oc2c(C)cccc2C)c2ccnc(Nc3ccc(N4CCN(C)CC4)cc3)n2)c(OC)c1", "classification": 1}
{"molecule": "C=CC(=O)Nc1cc(-n2c(=O)ccc3cnc4ccc(-c5cn[nH]c5)cc4c32)ccc1C", "classification": 1}
{"molecule": "O=C(NC1CC1)c1cccc(-c2ccc3c(NC(=O)C4CC4)n[nH]c3c2)c1", "classification": -1}
{"molecule": "CNC(=O)c1ccc(Nc2cc(Nc3ccccc3S(=O)(=O)C(C)C)c3cc[nH]c3n2)nc1", "classification": -1}
{"molecule": "CCN1CCN(Cc2ccc(NC(=O)c3ccc(C)c(/C=C/c4cnc5[nH]ccc5c4OC)c3)cc2C(F)(F)F)CC1", "classification": 1}
{"molecule": "CC1=C(C(=O)Nc2cc3cn[nH]c3cc2F)C(c2ccc(C(F)(F)F)cc2)CC(=O)N1 (stereo not drawn)", "classification": -1}
{"molecule": "COc1ccc(N(C(=O)Oc2cc(C(=O)Nc3cccc(C(F)(F)F)c3)ccc2C)c2ccnc(Nc3ccc(N4CCN(C)CC4)cc3)n2)c(OC)c1", "classification": 1}

kinase still bound, per cent of control strictly < 70% for this molecule? C=CC(=O)Nc1cc(NC(=O)c2ccc(C)c(NC(=O)c3ccno3)c2)cc(C(F)(F)F)c1
-1

kinase still bound, per cent of control strictly < 70% for this molecule? Cc1ccc(NC(=O)c2cccc(C(C)(C)C#N)c2)cc1Nc1ccc2ncn(C)c(=O)c2c1
1

kinase still bound, per cent of control strictly < 70% for this molecule? O=C(Nc1cccc(Nc2ncc(Br)c(NCCc3cnc[nH]3)n2)c1)N1CCCC1
1

kinase still bound, per cent of control strictly < 70% for this molecule? COc1cc2ncnc(-n3nc(-c4ccccn4)nc3N)c2cc1OC
1

kinase still bound, per cent of control strictly < 70% for this molecule? COc1cc(N2CCN(C)CC2)ccc1Nc1nc(N)c(C(=O)c2c(Cl)cccc2Cl)s1
-1

kinase still bound, per cent of control strictly < 70% for this molecule? CCN1CCN(C(=O)Cc2ccc(Nc3ncc(F)c(Nc4ccc(C(=O)Nc5ccccc5Cl)cc4)n3)cc2)CC1
1

kinase still bound, per cent of control strictly < 70% for this molecule? CCCS(=O)(=O)Nc1ccc(F)c(C(=O)c2c[nH]c3ncc(Cl)cc23)c1F
-1

kinase still bound, per cent of control strictly < 70% for this molecule? COc1cc2ncnc(Nc3cccc(Cl)c3)c2cc1OC
1

* * *

molecular target: UniProt Q9BVS4; experiment: KINOMEscan competition binding; conditions: compound 10.0 µM
Sequence (Q9BVS4 whole entry, looked up): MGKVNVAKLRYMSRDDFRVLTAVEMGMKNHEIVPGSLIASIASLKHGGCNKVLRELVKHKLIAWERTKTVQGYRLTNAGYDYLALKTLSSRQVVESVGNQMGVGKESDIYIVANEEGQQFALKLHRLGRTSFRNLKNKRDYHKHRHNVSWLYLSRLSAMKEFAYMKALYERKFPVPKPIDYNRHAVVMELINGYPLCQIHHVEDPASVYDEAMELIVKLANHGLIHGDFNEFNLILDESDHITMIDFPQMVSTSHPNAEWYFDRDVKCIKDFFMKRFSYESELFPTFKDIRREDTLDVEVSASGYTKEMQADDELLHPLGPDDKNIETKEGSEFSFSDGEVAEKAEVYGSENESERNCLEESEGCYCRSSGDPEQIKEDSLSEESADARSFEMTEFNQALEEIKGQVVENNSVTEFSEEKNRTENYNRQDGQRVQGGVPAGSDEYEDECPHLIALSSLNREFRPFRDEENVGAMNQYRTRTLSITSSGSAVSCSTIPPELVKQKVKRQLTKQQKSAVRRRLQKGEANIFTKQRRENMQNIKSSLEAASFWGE
quantityKind: kinase still bound, per cent of control (%)
Give the value, in units of %, as a plain number.

{"lineNotation": "Cc1ccc(C(=O)Nc2cccc(C(F)(F)F)c2)cc1Nc1cncc(C(N)=O)c1", "kinase still bound, per cent of control, %": 100}
{"lineNotation": "Cc1ccc(NC(=O)c2cccc(C(C)(C)C#N)c2)cc1Nc1ccc2ncn(C)c(=O)c2c1", "kinase still bound, per cent of control, %": 100}
{"lineNotation": "Cn1c(=O)n(-c2ccc(C(C)(C)C#N)cc2)c2c3cc(-c4cnc5ccccc5c4)ccc3ncc21", "kinase still bound, per cent of control, %": 100}
{"lineNotation": "CCOc1cc2ncc(C#N)c(Nc3ccc(OCc4ccccn4)c(Cl)c3)c2cc1NC(=O)/C=C/CN(C)C", "kinase still bound, per cent of control, %": 53}
{"lineNotation": "CN(C)C/C=C/C(=O)Nc1cccc(Nc2ncc3c(n2)N(C)c2ccccc2C(=O)N3C)c1", "kinase still bound, per cent of control, %": 79}
{"lineNotation": "COc1cc(N2CCN(C)CC2)ccc1Nc1nc(N)c(C(=O)c2c(Cl)cccc2Cl)s1", "kinase still bound, per cent of control, %": 100}
{"lineNotation": "C=CC(=O)Nc1cc(NC(=O)c2ccc(C)c(NC(=O)c3ccno3)c2)cc(C(F)(F)F)c1", "kinase still bound, per cent of control, %": 92}
{"lineNotation": "O=C(NC1CC1)c1cccc(-c2ccc3c(NC(=O)C4CC4)n[nH]c3c2)c1", "kinase still bound, per cent of control, %": 78}

Shift focus to the following entry.
Could you please provide reported kinase still bound, per cent of control for O=C1Nc2ccc(I)cc2/C1=C/c1cc(Br)c(O)c(Br)c1 ? Thanks!
35

* * *

biological target: PTK2 (human) (UniProt Q05397); assay: KINOMEscan competition binding; details: compound 10.0 µM
Sequence (Q05397 whole entry, looked up): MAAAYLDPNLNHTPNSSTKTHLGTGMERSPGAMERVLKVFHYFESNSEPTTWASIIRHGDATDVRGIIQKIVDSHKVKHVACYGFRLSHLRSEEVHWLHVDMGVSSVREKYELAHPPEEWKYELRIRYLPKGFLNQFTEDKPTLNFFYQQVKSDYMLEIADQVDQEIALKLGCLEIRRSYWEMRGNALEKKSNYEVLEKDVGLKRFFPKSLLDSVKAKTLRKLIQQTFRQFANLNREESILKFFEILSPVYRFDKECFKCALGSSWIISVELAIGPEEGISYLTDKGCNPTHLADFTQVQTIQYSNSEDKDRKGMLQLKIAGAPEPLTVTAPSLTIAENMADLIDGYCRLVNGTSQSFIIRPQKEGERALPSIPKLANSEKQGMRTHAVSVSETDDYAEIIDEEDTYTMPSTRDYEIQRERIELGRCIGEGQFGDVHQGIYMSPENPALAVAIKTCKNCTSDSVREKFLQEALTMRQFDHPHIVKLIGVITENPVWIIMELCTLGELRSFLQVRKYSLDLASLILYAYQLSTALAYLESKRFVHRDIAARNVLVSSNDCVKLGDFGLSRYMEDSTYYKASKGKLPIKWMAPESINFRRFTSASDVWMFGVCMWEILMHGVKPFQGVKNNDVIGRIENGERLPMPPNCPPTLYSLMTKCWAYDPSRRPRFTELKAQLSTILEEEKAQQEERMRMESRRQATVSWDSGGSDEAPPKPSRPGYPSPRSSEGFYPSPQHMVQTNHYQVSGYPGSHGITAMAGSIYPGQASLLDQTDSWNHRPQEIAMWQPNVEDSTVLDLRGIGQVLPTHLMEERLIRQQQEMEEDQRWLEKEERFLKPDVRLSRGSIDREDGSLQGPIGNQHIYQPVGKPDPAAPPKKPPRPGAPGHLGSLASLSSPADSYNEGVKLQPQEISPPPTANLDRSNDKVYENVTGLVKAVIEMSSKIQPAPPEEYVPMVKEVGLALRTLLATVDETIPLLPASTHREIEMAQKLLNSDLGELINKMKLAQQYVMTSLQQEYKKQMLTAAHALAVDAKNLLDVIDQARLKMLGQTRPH
quantityKind: kinase still bound, per cent of control (%)
Give the value, in units of %, as a plain number.

Could you please provide reported kinase still bound, per cent of control for Nc1ccc(-c2ccc3ncc4ccc(=O)n(-c5cccc(C(F)(F)F)c5)c4c3c2)cn1 ? Thanks!
75

* * *

target: UniProtKB Q13043; test: KINOMEscan competition binding; details: compound 10.0 µM
Sequence (Q13043 whole entry, looked up): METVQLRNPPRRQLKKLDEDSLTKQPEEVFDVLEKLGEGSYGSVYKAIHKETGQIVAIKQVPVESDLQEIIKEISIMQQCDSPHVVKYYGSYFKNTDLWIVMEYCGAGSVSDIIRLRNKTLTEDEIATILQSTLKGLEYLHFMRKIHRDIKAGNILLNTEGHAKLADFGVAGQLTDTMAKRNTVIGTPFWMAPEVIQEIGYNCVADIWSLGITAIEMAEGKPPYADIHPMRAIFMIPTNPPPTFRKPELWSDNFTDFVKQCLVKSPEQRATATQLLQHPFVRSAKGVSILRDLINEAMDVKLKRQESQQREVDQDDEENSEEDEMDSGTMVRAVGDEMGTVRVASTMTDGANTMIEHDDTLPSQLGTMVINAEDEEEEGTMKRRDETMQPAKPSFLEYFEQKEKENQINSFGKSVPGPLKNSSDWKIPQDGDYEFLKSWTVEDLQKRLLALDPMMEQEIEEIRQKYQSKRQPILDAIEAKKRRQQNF
# maps each entry to its kinase still bound, per cent of control
Give the value, in units of %, as a plain number.

{"compound": "Cc1cc([C@@H](C)Nc2ccccc2C(=O)O)c2nc(N3CCOCC3)cc(=O)n2c1", "unitDescriptor": "%", "value": 95}
{"compound": "O=C(NOC[C@H](O)CO)c1ccc(F)c(F)c1Nc1ccc(I)cc1F", "unitDescriptor": "%", "value": 100}
{"compound": "C[C@@H](Oc1cc(-n2cnc3ccc(CN4CCN(C)CC4)cc32)sc1C(N)=O)c1ccccc1C(F)(F)F", "unitDescriptor": "%", "value": 100}

Could you please provide reported kinase still bound, per cent of control for Cc1ccc2nc(NCCN)c3ncc(C)n3c2c1 ? Thanks!
100

Could you please provide reported kinase still bound, per cent of control for COc1cc(C(=O)NC2CCN(C)CC2)ccc1Nc1ncc2c(n1)N(C1CCCC1)C(C)CC(=O)N2C (centres undefined) ? Thanks!
100

Could you please provide reported kinase still bound, per cent of control for COc1cc(C(=O)NC2CCN(C)CC2)ccc1Nc1ncc2c(n1)N(C1CCCC1)CCC(=O)N2C(C)C ? Thanks!
100

Could you please provide reported kinase still bound, per cent of control for N#Cc1c(NC(=O)c2cccc3ccccc23)sc2c1CCCC2 ? Thanks!
94

Could you please provide reported kinase still bound, per cent of control for C=CC(=O)Nc1cccc(Oc2nc(Nc3ccc(N4CCN(C)CC4)cc3OC)ncc2Cl)c1 ? Thanks!
100

* * *

target: ROCK1 (human); test: KINOMEscan competition binding; conditions: compound 10.0 µM
One threshold, 60%, splits the recorded kinase still bound, per cent of control values: lower ones are TRUE, equal or higher ones are FALSE.

// known answers, use as guide
{"lineNotation": "CN(C)C/C=C/C(=O)Nc1cccc(Nc2ncc3c(n2)N(C)c2ccccc2C(=O)N3C)c1", "classification": "TRUE"}
{"lineNotation": "C[C@@H](Oc1cc(-n2cnc3ccc(CN4CCN(C)CC4)cc32)sc1C(N)=O)c1ccccc1C(F)(F)F", "classification": "TRUE"}
{"lineNotation": "CCN1CCN(Cc2ccc(Nc3ncc4c(n3)N(C)c3ccccc3C(=O)N4C)cc2C(F)(F)F)CC1", "classification": "FALSE"}
{"lineNotation": "O=C(NOC[C@H](O)CO)c1ccc(F)c(F)c1Nc1ccc(I)cc1F", "classification": "FALSE"}
{"lineNotation": "Cc1ccc(NC(=O)c2cccc(C(C)(C)C#N)c2)cc1Nc1ccc2ncn(C)c(=O)c2c1", "classification": "FALSE"}
{"lineNotation": "O=C(NC1CC1)c1cccc(-c2ccc3c(NC(=O)C4CC4)n[nH]c3c2)c1", "classification": "TRUE"}
{"lineNotation": "Cc1ccc2nc(NCCN)c3ncc(C)n3c2c1", "classification": "FALSE"}
{"lineNotation": "C=CC(=O)Nc1cccc(Nc2nc(N[C@H]3CC[C@H](N(C)C)CC3)nc3c2ncn3C(C)C)c1", "classification": "TRUE"}
{"lineNotation": "N#Cc1c(NC(=O)c2cccc3ccccc23)sc2c1CCCC2", "classification": "FALSE"}
{"lineNotation": "COc1cc(N2CCN(C)CC2)ccc1Nc1nc(N)c(C(=O)c2c(Cl)cccc2Cl)s1", "classification": "FALSE"}

kinase still bound, per cent of control strictly < 60% for this compound? O=C(O)c1ccc(Nc2ncc3c(n2)-c2ccc(Cl)cc2C(c2c(F)cccc2F)=NC3)cc1
FALSE

kinase still bound, per cent of control strictly < 60% for this compound? Cn1c(=O)n(-c2ccc(C(C)(C)C#N)cc2)c2c3cc(-c4cnc5ccccc5c4)ccc3ncc21
FALSE
